The measured values listed here are drawn from the supplement of paper PMC7877785.

Assay: self-splicing fitness, log relative to wild type (ln ratio); higher = more splicing; Tetrahymena group I intron in knt gene, E. coli kanamycin selection, DiMSum; sequences stand for … in CUCUCU…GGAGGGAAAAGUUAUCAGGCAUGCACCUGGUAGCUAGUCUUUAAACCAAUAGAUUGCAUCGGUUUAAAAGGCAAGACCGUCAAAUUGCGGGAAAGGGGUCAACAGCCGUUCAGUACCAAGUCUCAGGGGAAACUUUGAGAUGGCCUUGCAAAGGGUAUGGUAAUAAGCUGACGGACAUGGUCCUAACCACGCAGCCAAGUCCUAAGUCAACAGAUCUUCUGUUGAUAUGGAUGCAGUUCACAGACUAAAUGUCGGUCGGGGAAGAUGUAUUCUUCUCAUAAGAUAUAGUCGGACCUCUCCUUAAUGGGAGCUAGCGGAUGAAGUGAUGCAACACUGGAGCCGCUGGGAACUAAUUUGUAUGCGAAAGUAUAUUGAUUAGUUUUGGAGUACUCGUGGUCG;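 further: selection with 25 µg/mL kanamycin versus none on LB agar overnight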
Applied conditions: 30 °C
// label = true (1) if self-splicing fitness (ln) is not less than -2, otherwise false (0)

INSERT INTO measurements (sequence, qualitative_label) VALUES
  ('AUCGAGCAAUAUUACGUACU', 'true (1)'),
  ('UCCGAGCAAUAUUACGUAAA', 'false (0)'),
  ('UUUUAGCAAUAUUACGCCUA', 'true (1)'),
  ('UGCGAGCAAUAUUACGUAAU', 'false (0)'),
  ('UUCUAGCAAUAUUACGCUUU', 'false (0)'),
  ('GCAUAGCAAUAUUACGUAGG', 'false (0)'),
  ('UGCCAGCAAUAUUACGUAAU', 'false (0)'),
  ('GGCGAGCAAUAUUACGAGGA', 'false (0)'),
  ('UAUAAGCAAUAUUACGUAGA', 'true (1)'),
  ('ACCUAGCAAUAUUACGCGUU', 'false (0)'),
  ('UACCAGCAAUAUUACGAUUG', 'false (0)'),
  ('UGCAAGCAAUAUUACGCGUA', 'true (1)'),
  ('UGAUAGCAAUAUUACGGAUA', 'false (0)'),
  ('GGCUAGCAAUAUUACGGCGA', 'true (1)'),
  ('UGAAAGCAAUAUUACGACGA', 'true (1)'),
  ('CAUUAGCAAUAUUACGCCAG', 'true (1)'),
  ('CUACAGCAAUAUUACGUGGC', 'false (0)'),
  ('GUACAGCAAUAUUACGUGUC', 'false (0)'),
  ('AGACAGCAAUAUUACGACAC', 'true (1)'),
  ('ACUUAGCAAUAUUACGCCGU', 'false (0)'),
  ('UACAAGCAAUAUUACGUUAU', 'false (0)'),
  ('GUACAGCAAUAUUACGUUGG', 'false (0)'),
  ('CGUAAGCAAUAUUACGAGGU', 'false (0)'),
  ('CCGGAGCAAUAUUACGUGCA', 'false (0)'),
  ('GAAUAGCAAUAUUACGCUGG', 'false (0)'),
  ('GAGAAGCAAUAUUACGUUGU', 'false (0)'),
  ('UUACAGCAAUAUUACGCCAU', 'false (0)'),
  ('CCCGAGCAAUAUUACGUGAG', 'false (0)'),
  ('UCAUAGCAAUAUUACGGGGG', 'false (0)'),
  ('CUAUAGCAAUAUUACGAGUU', 'false (0)'),
  ('UCCUAGCAAUAUUACGGUUC', 'false (0)'),
  ('UUAUAGCAAUAUUACGGUUC', 'false (0)'),
  ('CCGCAGCAAUAUUACGCCAC', 'false (0)'),
  ('CUCAAGCAAUAUUACGUCUG', 'false (0)'),
  ('GCCAAGCAAUAUUACGUGGC', 'false (0)'),
  ('CGCCAGCAAUAUUACGUACG', 'true (1)'),
  ('CCCUAGCAAUAUUACGGAAA', 'false (0)'),
  ('CCGGAGCAAUAUUACGUUCG', 'false (0)'),
  ('UGAAAGCAAUAUUACGCGUC', 'false (0)'),
  ('GUGAAGCAAUAUUACGUCGU', 'true (1)'),
  ('CUGGAGCAAUAUUACGAUUG', 'true (1)'),
  ('GCUUAGCAAUAUUACGACAG', 'false (0)'),
  ('GACCAGCAAUAUUACGUUCC', 'false (0)'),
  ('GGUAAGCAAUAUUACGCCCU', 'true (1)'),
  ('UGAAAGCAAUAUUACGAGUA', 'true (1)'),
  ('GGAUAGCAAUAUUACGGCAA', 'true (1)'),
  ('GUGAAGCAAUAUUACGCGCU', 'false (0)'),
  ('CGGUAGCAAUAUUACGUAGA', 'true (1)'),
  ('UUUGAGCAAUAUUACGGUCA', 'true (1)'),
  ('UAACAGCAAUAUUACGCAUA', 'true (1)'),
  ('CCCCAGCAAUAUUACGUCAU', 'false (0)'),
  ('UGUUAGCAAUAUUACGCCGA', 'true (1)'),
  ('CCCAAGCAAUAUUACGGCCG', 'false (0)'),
  ('ACAGAGCAAUAUUACGUCGU', 'false (0)'),
  ('GAAUAGCAAUAUUACGAAUA', 'true (1)'),
  ('CAGCAGCAAUAUUACGUCCC', 'false (0)'),
  ('CGGAAGCAAUAUUACGCCUU', 'false (0)'),
  ('AUACAGCAAUAUUACGCGUG', 'true (1)'),
  ('CAUCAGCAAUAUUACGGAGC', 'false (0)'),
  ('GGAUAGCAAUAUUACGCUCA', 'true (1)'),
  ('CCCAAGCAAUAUUACGGCUG', 'false (0)'),
  ('AUGUAGCAAUAUUACGCCAA', 'true (1)'),
  ('GAGAAGCAAUAUUACGGCUA', 'true (1)'),
  ('CGCUAGCAAUAUUACGUCAC', 'false (0)'),
  ('GCCCAGCAAUAUUACGUUGA', 'true (1)'),
  ('CACCAGCAAUAUUACGUAAG', 'true (1)');
